- study system: Human M4 (Homo sapiens)
- Construct: expressed in transfected cells
- run description: mAChR M4 cell-based functional assay (calcium flux, potentiation of EC20 acetylcholine response), hM4-Gqi5 CHO-K1 cells
- protocol conditions: CHO-K1; Table 3; Human M4; % ACh maximum at 30 μM; read-out: Emax (% ACh maximum at 30 μM)
I would appreciate it if you labelled entries 1 when Emax at 30 µM is 90% or higher, otherwise 0.

Some solved cases for reference:
Cc1cc2nncn2nc1N1CCc2ncc(-c3ccc(C4CC4)nc3)cc2C1 [Compound 197]: 0
Cc1c(N2CCc3ncc(OCC(C)C)cc3C2)nn2cnnc2c1C [Compound 221]: 0
Cc1c(N2CCc3ncc(-n4cccc4)cc3C2)nn2c(C(F)(F)F)nnc2c1C [Compound 244]: 0
Cc1c(N2CCc3ncc(N4CCC5(CC4)COC5)cc3C2)nn2c(C(F)(F)F)nnc2c1C [Compound 274]: 0
Cc1cnc2c(c1)CN(c1nn3cc(C(=O)N4CCCC4)nc3cc1C)CC2 [Compound 171]: 1
Cc1cccc(C(=O)Nc2cnc3c(c2)CN(c2nn4cnnc4c(C)c2C)CC3)c1 [Compound 157]: 1

Enquiry: Decide: Emax at 30 µM of Cc1c(N2CCc3ncc(-c4cccnc4F)cc3C2)nn2cnnc2c1C [Compound 183] >= 90%?
Return: 1

Enquiry: Decide: Emax at 30 µM of Cc1c(N2CCc3ncc(N4CCCn5nccc54)cc3C2)nn2c(C(F)(F)F)nnc2c1C [Compound 267] >= 90%?
Return: 1

Enquiry: Decide: Emax at 30 µM of Cc1c(N2CCc3ncc(-c4ccc(N5CCN(C)CC5)nc4)cc3C2)nn2cnnc2c1C [Compound 187] >= 90%?
Return: 1

----------
- study system: Human M4 (Homo sapiens, UniProt P08173)
- Construct: expressed in transfected cells
- Sequence (P08173 1-479): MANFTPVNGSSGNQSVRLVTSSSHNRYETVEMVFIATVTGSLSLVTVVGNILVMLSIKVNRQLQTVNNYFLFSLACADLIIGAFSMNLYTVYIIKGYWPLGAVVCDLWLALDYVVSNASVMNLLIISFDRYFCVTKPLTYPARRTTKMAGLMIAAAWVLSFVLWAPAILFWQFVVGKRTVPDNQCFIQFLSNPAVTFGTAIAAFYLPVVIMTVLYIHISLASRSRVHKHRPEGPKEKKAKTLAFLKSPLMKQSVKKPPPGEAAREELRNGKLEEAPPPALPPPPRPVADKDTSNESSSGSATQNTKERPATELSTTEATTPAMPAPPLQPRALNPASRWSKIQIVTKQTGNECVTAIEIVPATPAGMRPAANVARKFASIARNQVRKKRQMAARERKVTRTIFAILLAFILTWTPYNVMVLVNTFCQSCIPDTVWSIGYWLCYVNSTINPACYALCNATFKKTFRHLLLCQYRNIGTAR
- run description: mAChR M4 cell-based functional assay (calcium flux, potentiation of EC20 acetylcholine response), hM4-Gqi5 CHO-K1 cells
- protocol conditions: CHO-K1; % ACh maximum at 30 μM; human M4; read-out: Emax
- Experimental: […] Calcium flux was measured using the Functional Drug Screening System (FDSS) 6000 or 7000 (Hamamatsu Corporation, Tokyo, Japan) as an increase in the fluorescent static ratio. […] Agonist activity was analyzed as a concentration-dependent increase in calcium mobilization upon compound addition. Positive allosteric modulator activity was analyzed as a concentration-dependent increase in the EC20 acetylcholine response. […]
measured metric: Emax at 30 µM (%)
Lab book: enter the figure in %, no units written.

Check out these entries, answers already filled in.
Cc1nn(C)c(C)c1-c1cnc2c(c1)CN(c1nn3c(C)nnc3c(C)c1C)CC2 [Compound 87]: 89
Cc1c(N2CCc3ncc(Nc4ccccc4C#N)cc3C2)nn2cnnc2c1C [Compound 52]: 76

Enquiry: Indicate the recorded Emax at 30 µM value for this molecule: Cc1cc2nccn2nc1N1CCc2ncc(-c3c(C)cnn3C)cc2C1 [Compound 136]
Return: 66

Enquiry: Indicate the recorded Emax at 30 µM value for this molecule: Cc1c(N2CCc3ncc(C(=O)NCc4cncs4)cc3C2)nn2cnnc2c1C [Compound 118]
Return: 99

Enquiry: Indicate the recorded Emax at 30 µM value for this molecule: Cc1c(N2CCc3ncc(C(=O)N4CC(F)C4)cc3C2)nn2cnnc2c1C [Compound 117]
Return: 67

Enquiry: Indicate the recorded Emax at 30 µM value for this molecule: Cc1c(N2CCc3ncc(-c4cnn(C5CCC5)c4)cc3C2)nn2cnnc2c1C [Compound 99]
Return: 95

Enquiry: Indicate the recorded Emax at 30 µM value for this molecule: Cc1c(N2CCc3ncc(C(C)(C)O)cc3C2)nn2cnnc2c1C [Compound 62]
Return: 108

Enquiry: Indicate the recorded Emax at 30 µM value for this molecule: Cc1c(N2CCc3ncc(C(=O)N4CCC(O)CC4C)cc3C2)nn2cnnc2c1C (centres unmarked) [Compound 119]
Return: 73

Enquiry: Indicate the recorded Emax at 30 µM value for this molecule: Cc1cc2nncn2nc1N1CCc2ncc(-c3cn(C)nc3C)cc2C1 [Compound 113]
Return: 97

Enquiry: Indicate the recorded Emax at 30 µM value for this molecule: Cc1cnn(C)c1-c1cnc2c(c1)CN(c1nn3cnnc3c(C)c1C)CC2 [Compound 134]
Return: 88

Enquiry: Indicate the recorded Emax at 30 µM value for this molecule: Cc1c(N2CCc3ncc(-c4cncs4)cc3C2)nn2cnnc2c1C [Compound 9]
Return: 79

Enquiry: Indicate the recorded Emax at 30 µM value for this molecule: Cc1cc2nncn2nc1N1CCc2ncc(-c3c(C)nn(C)c3C)cc2C1 [Compound 104]
Return: 91

Enquiry: Indicate the recorded Emax at 30 µM value for this molecule: Cc1c(N2CCc3ncc(C(=O)NCC4COC4)cc3C2)nn2cnnc2c1C [Compound 120]
Return: 76

Enquiry: Indicate the recorded Emax at 30 µM value for this molecule: Cc1c(N2CCc3ncc(NCc4cccc(F)c4)cc3C2)nn2cnnc2c1C [Compound 18]
Return: 47

Enquiry: Indicate the recorded Emax at 30 µM value for this molecule: Cc1c(N2CCc3ncc(Oc4ccc(OC(F)(F)F)c(F)c4)cc3C2)nn2cnnc2c1C [Compound 6]
Return: 33

Enquiry: Indicate the recorded Emax at 30 µM value for this molecule: Cc1c(N2CCc3ncc(-c4cnn(CC5CC5)c4)cc3C2)nn2c(C(F)(F)F)nnc2c1C [Compound 95]
Return: 90

Enquiry: Indicate the recorded Emax at 30 µM value for this molecule: Cc1c(N2CCc3ncc(Nc4c(F)cccc4Cl)cc3C2)nn2cnnc2c1C [Compound 64]
Return: 96

----------
- study system: Human M4 (Homo sapiens)
- Construct: expressed in transfected cells
- run description: mAChR M4 cell-based functional assay (calcium flux, potentiation of EC20 acetylcholine response), hM4-Gqi5 CHO-K1 cells
- protocol conditions: Table 3; potentiation of EC20 acetylcholine response, calcium flux, CHO-K1 cells; read-out: Human M4 EC50
measured metric: pEC50
As a rule, pEC50 stands for the negative log10 of the concentration, concentration in M.

Check out these entries, answers already filled in.
Cc1c(N2CCc3ncc(N4CCC5OCCCC5C4)cc3C2)nn2c(C(F)(F)F)nnc2c1C (stereo not drawn): 6.09
Cc1c(N2CCc3ncc(-c4ccc(N5CC[C@@H](F)C5)nc4)cc3C2)nn2c(C(F)(F)F)nnc2c1C: 5.92
Cc1c(N2CCc3ncc(OCC4CCOC4)cc3C2)nn2cnnc2c1C (stereo not drawn): 5.91
COc1nc(Cl)ccc1-c1cnc2c(c1)CN(c1nn3cnnc3c(C)c1C)CC2: 5.97
Cc1c(N2CCc3ncc(-c4ccc(N5CC[C@H](F)C5)nc4)cc3C2)nn2c(C(F)(F)F)nnc2c1C: 5.90

Enquiry: Indicate the recorded pEC50 value for this molecule: Cc1c(N2CCc3ncc(Oc4cccc(F)c4)cc3C2)nn2c(C(F)(F)F)nnc2c1C
Return: 6.08

----------
Overview of reported Emax at 30 µM across a group of molecules:
- study system: Human M4 (Homo sapiens, UniProt P08173)
- Construct: expressed in transfected cells
- run description: mAChR M4 cell-based functional assay (calcium flux, potentiation of EC20 acetylcholine response), hM4-Gqi5 CHO-K1 cells
- protocol conditions: CHO-K1; Table 3; Human M4; % ACh maximum at 30 μM; read-out: Emax (% ACh maximum at 30 μM)
Lab book: enter the figure in %, no units written.

Cc1cc2nncn2nc1N1CCc2ncc(-c3cccnc3)cc2C1 [Compound 199]: 84
CC(=O)c1cnc2c(c1)CN(c1nn3cnnc3c(C)c1C)CC2 [Compound 184]: 96
Cc1c(N2CCc3ncc(-c4cnn(C5CC5)c4)cc3C2)nn2c(C(F)(F)F)nnc2c1C [Compound 234]: 78

Enquiry: Indicate the recorded Emax at 30 µM value for this molecule: Cc1c(N2CCc3nnc(Cl)cc3C2)nn2c(C(F)(F)F)nnc2c1C [Compound 283]
Return: 89

----------
- study system: Human M4 (Homo sapiens, UniProt P08173)
- Construct: expressed in transfected cells
- Sequence (P08173 1-479): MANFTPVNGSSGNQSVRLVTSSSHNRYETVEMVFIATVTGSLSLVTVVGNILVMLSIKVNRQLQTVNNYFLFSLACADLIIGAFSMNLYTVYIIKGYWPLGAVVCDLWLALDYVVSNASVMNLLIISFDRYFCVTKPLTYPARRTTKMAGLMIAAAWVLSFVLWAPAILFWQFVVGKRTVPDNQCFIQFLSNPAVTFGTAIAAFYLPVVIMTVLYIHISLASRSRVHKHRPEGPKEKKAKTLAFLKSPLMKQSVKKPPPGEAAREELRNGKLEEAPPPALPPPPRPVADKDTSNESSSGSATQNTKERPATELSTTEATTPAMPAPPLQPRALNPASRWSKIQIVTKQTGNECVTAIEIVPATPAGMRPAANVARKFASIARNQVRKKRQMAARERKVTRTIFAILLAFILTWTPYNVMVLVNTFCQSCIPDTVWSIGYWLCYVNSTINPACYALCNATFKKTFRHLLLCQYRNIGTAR
- run description: mAChR M4 cell-based functional assay (calcium flux, potentiation of EC20 acetylcholine response), hM4-Gqi5 CHO-K1 cells
- protocol conditions: hM4-Gqi5 CHO-K1 cells, calcium flux, PAM of EC20 acetylcholine; read-out: Human M4 EC50
- Experimental: […] Calcium flux was measured using the Functional Drug Screening System (FDSS) 6000 or 7000 (Hamamatsu Corporation, Tokyo, Japan) as an increase in the fluorescent static ratio. […] Agonist activity was analyzed as a concentration-dependent increase in calcium mobilization upon compound addition. Positive allosteric modulator activity was analyzed as a concentration-dependent increase in the EC20 acetylcholine response. […]
Overview of reported pEC50 across a group of compounds:
As a rule, pEC50 stands for the negative log10 of the concentration, concentration in M.

Check out these entries, answers already filled in.
Cc1c(N2CCc3ncc(C(C)(C)O)cc3C2)nn2cnnc2c1C: 7.03
Cc1c(N2CCc3ncc(Nc4ccccc4F)cc3C2)nn2c(C)nnc2c1C: 6.44
Cc1cc2nncn2nc1N1CCc2ncc(-c3cnn(C4CCNCC4)c3)cc2C1: 6.50
Cc1c(N2CCc3ncc(Nc4ncc(F)cc4F)cc3C2)nn2cnnc2c1C: 6.74
Cc1noc(C)c1-c1cnc2c(c1)CN(c1nn3c(C(F)(F)F)nnc3c(C)c1C)CC2: 6.70

Field: next compound
Enquiry: Would you please give the reported pEC50 of Cc1ccncc1-c1cnc2c(c1)CN(c1nn3cnnc3c(C)c1C)CC2 with Human M4 (Homo sapiens, UniProt P08173)?
Return: 6.98
